All values here come from ChEMBL document CHEMBL4219147.

Each item that follows carries a reported viability at 12 h, 10 µM.
- assay-comment: Cytotoxicity against Sprague-Dawley rat L6 cells assessed as cell viability at 10 uM after 12 hrs by SRB assay (reference value: 100 +/- 1.8%)
- Assay type: cell-based
- test-conditions: read-out: Activity

[
  {
    "compound": "COc1ccc2cc3[n+](cc2c1OC)CCc1cc2c(cc1-3)OCO2 [BERBERINE CHLORIDE]",
    "viability at 12 h, 10 µM / %": 100
  },
  {
    "compound": "COc1ccc(OC)c2c1CC1c3cc(Cc4ccc(N5CCOCC5)cc4)sc3CCN1C2 (stereo not given)",
    "viability at 12 h, 10 µM / %": 99.2
  },
  {
    "compound": "COc1cccc(Cc2cc3c(s2)CCN2Cc4c(OC)ccc(OC)c4CC32)c1 (stereo not given)",
    "viability at 12 h, 10 µM / %": 94.9
  },
  {
    "compound": "COc1ccc(OC)c2c1CC1c3cc(Cc4ccc5c(c4)CCO5)sc3CCN1C2 (stereo not given)",
    "viability at 12 h, 10 µM / %": 103
  },
  {
    "compound": "COc1ccc(OC)c2c1CC1c3cc(C(C)c4ccccc4)sc3CCN1C2 (stereo not given)",
    "viability at 12 h, 10 µM / %": 102
  }
]

---

- Tested on: L6
- assay-comment: Activation of AMPK in differentiated Sprague-Dawley rat L6 myotube cells assessed as glucose consumption at 20 uM after 12 hrs by colorimetric assay (reference value: 100 +/- 1.8%)
- Type: cell-based

[
  {
    "molecule": "COc1ccc(OC)c2c1CC1c3cc(Cc4ccc(N5CCOCC5)cc4)sc3CCN1C2 (stereo not drawn)",
    "Activity / %": 157
  },
  {
    "molecule": "COc1ccc(OC)c2c1CC1c3cc(C(C)c4ccccc4)sc3CCN1C2 (stereo not drawn)",
    "Activity / %": 246
  },
  {
    "molecule": "COc1ccc(OC)c2c1CC1c3cc(Cc4ccc(NC(C)=O)cc4)sc3CCN1C2 (stereo not drawn)",
    "Activity / %": 142
  }
]

---

- System: L6
- assay-comment: Activation of AMPK in differentiated Sprague-Dawley rat L6 myotube cells assessed as glucose consumption at 20 uM after 12 hrs by colorimetric assay (reference value: 100 +/- 1.8%)
- Format: cell-based
Each item that follows carries a reported Activity.

[
  {
    "compound": "COc1ccc(OC)c2c1CC1c3cc(Cc4ccc(C(F)(F)F)cc4)sc3CCN1C2 (centres undefined)",
    "units": "%",
    "Activity": 229
  },
  {
    "compound": "COc1cccc(Cc2cc3c(s2)CCN2Cc4c(OC)ccc(OC)c4CC32)c1 (centres undefined)",
    "units": "%",
    "Activity": 243
  },
  {
    "compound": "C=CCOc1ccc(Cc2cc3c(s2)CCN2Cc4c(OC)ccc(OC)c4CC32)cc1 (centres undefined)",
    "units": "%",
    "Activity": 265
  },
  {
    "compound": "COc1ccc(OC)c2c1CC1c3cc(Cc4ccncc4)sc3CCN1C2 (centres undefined)",
    "units": "%",
    "Activity": 153
  }
]
